Measurement Description: qHTS assay for small molecule activators of the heat shock response signaling pathway - cell viability counter screen (AID 743209); also: % is scaled to controls: 0 for no effect and ±100 for the full control effect; nearly all actives have a fitted effect of over 50% in size
Run Parameters: HSE-bla HeLa viability, CellTiter-Glo luminescence, 5 h; series mostly up to 62.6 µM
Results filed as inconclusive are left out. Active and inactive are the calls of the source. Calls follow the shape of the dose curve; as a rule, active = well fitted cell-killing curve with a large enough effect in the repeat runs; inconclusive = weak or mixed curves, or effect the other way; inactive = no such curve, though single readings can be large or run the other way.
Measured Parameter: outcome

Molecule: CCC(CC)(CC(=O)Nc1cccc(/C=C/c2nc(C3CCC3)cs2)c1)C(=O)O
Assay Result: inactive
//
Molecule: Oc1ccccc1O
Assay Result: inactive
//
Molecule: OC12N=C(c3ccccc3)SC1Cc1cc(Cl)ccc12 (stereo unspecified)
Assay Result: inactive
//
Molecule: CCCCCCCCCCOC(=O)c1ccccc1C(=O)OCCCCCCCC
Assay Result: inactive
//
Molecule: C[C@@H](O)[C@H](N)C(=O)O
Assay Result: inactive
//
Molecule: COC(=O)Nc1nc2ccc(C(=O)c3ccccc3)cc2[nH]1
Assay Result: inactive
//
Molecule: COc1ccc2cc1Oc1ccc(cc1)C[C@H]1c3c(cc4c(c3Oc3cc5c(cc3OC)CCN(C)[C@@H]5C2)OCO4)CCN1C
Assay Result: inactive
//
Molecule: O=c1c(O)c(-c2ccc(O)cc2O)oc2cc(O)cc(O)c12
Assay Result: inactive

May I ask what outcome has been recorded for Nc1nc(-c2ccccc2)cs1 ?
inactive

Next entry: COC(=O)c1ccccc1C
inactive

Next entry: CCCc1ccc(OCC(=O)N2CCN(C(=O)COc3ccc(CCC)cc3OC)CC2)c(OC)c1
inactive

Next entry: O=C(/C=C/c1ccccc1)OC/C=C/c1ccccc1
inactive

Next entry: O=c1[nH]c2ccccc2n1CCCN1CCN(C(c2ccccc2)c2ccccc2)CC1
inactive

Next entry: Nc1nc2c(ncn2COCCO)c(=O)[nH]1
inactive

Next entry: CN1CCN2c3ccccc3Cc3ccccc3C2C1 (stereo unspecified)
inactive

Next entry: CCOC(=O)Cn1cccc1-c1nc(-c2ccc(OC)cc2)c(-c2ccc(OC)cc2)s1
inactive

Next entry: CN1CCC[C@@H]1CCO[C@](C)(c1ccccc1)c1ccc(Cl)cc1
inactive

Next entry: Cc1ccc(-c2ccccc2)cc1
inactive

###

Study Target: Estrogen receptor (Homo sapiens) (UniProt P03372)
Sequence (P03372 whole entry, looked up): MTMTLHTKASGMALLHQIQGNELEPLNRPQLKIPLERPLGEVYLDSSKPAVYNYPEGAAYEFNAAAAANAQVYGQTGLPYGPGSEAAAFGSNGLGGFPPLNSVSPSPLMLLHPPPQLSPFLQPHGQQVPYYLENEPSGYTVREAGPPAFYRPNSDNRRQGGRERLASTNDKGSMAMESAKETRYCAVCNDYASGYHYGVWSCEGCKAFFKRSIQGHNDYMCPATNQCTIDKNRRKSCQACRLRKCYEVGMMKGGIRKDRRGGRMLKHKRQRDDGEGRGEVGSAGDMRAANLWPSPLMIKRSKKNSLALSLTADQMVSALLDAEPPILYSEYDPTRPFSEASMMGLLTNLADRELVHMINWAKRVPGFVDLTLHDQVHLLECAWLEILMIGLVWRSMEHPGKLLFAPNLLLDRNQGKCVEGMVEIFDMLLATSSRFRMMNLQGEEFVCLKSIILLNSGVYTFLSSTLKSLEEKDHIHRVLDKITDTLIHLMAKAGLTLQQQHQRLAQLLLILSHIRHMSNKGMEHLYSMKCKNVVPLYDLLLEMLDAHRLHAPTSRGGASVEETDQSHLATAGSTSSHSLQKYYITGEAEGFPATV
Measurement Description: qHTS assay to identify small molecule agonists of the estrogen receptor alpha (ER-alpha) signaling pathway (AID 743075);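 also: HEK293 GripTite cells with ER-alpha and UAS-driven beta-lactamase reporter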; also: potency is read from the fitted curve at half-maximal effect
Run Parameters: HEK293 ER-alpha-UAS-bla, beta-lactamase FRET ratio, 18 h; series mostly up to 70.1 µM
Active and inactive are the calls of the source. Calls follow the shape of the full dose curve.
Measured Parameter: Potency

Sample answers from the record:
Compound: O=C1CCCCCCCCCCCCCCCO1
Study Target: Estrogen receptor (Homo sapiens) (UniProt P03372)
Measured Parameter: Potency
Assay Result: inactive
--
Compound: COC(=O)c1ccccc1C
Study Target: Estrogen receptor (Homo sapiens) (UniProt P03372)
Measured Parameter: Potency
Assay Result: inactive
--
Compound: C#C[C@]1(O)CC[C@H]2[C@@H]3[C@H](C)CC4=C(CCC(=O)C4)[C@H]3CC[C@@]21C
Study Target: Estrogen receptor (Homo sapiens) (UniProt P03372)
Measured Parameter: Potency
Assay Result: 0.0134 µM [inconclusive] (active)
--
Compound: C=CC(=O)Nc1cc2c(Nc3ccc(F)c(Cl)c3)ncnc2cc1OCCCN1CCOCC1
Study Target: Estrogen receptor (Homo sapiens) (UniProt P03372)
Measured Parameter: Potency
Assay Result: 23.9 µM [inconclusive] (active)
--
Compound: CCCCCC(C)OC(=O)COc1ccc(Cl)c2cccnc12 (configuration not stated)
Study Target: Estrogen receptor (Homo sapiens) (UniProt P03372)
Measured Parameter: Potency
Assay Result: inactive

Value wanted: Potency (Estrogen receptor (Homo sapiens) (UniProt P03372)) of entry CCc1ccc(Br)cc1
inactive

Next entry: CCCCC/C=C\C/C=C\CCCCCCCC(=O)O
inactive

Next entry: CC1=CCC(=C(C)C)CC1
inactive

Next entry: CCN(CCN)c1cccc(C)c1
inactive

Next entry: Clc1sc(Cl)c(Cl)c1Cl
inactive

Next entry: c1ccc(C(O[C@@H]2CCCN(CCc3ccc4c(c3)OCO4)C2)c2ccccc2)cc1
inactive

Next entry: CC(=O)[C@H]1CC[C@H]2[C@@H]3CCC4=CC(=O)CC[C@]4(C)[C@H]3CC[C@]12C
inactive

###

Study Target: Cytochrome P450 2C19 (Homo sapiens)
Measurement Description: Cytochrome P450 Family 2 Subfamily C Member 19 (CYP2C19) small molecule antagonists: luciferase reporter qHTS assay (AID 1671197); also: nearly all actives have a fitted effect of over 65% in size
Run Parameters: P450-Glo CYP2C19 enzyme, luciferin luminescence, 1 h; series mostly up to 115 µM
Records with an inconclusive call do not appear. Active and inactive are the calls of the source. Calls follow the shape of the dose curve; as a rule, active = well fitted inhibition curve with a large enough effect in the repeat runs; inconclusive = weak or mixed curves; inactive = no such curve, though single readings can be large or run the other way.
Please reply with one of these outcomes: 1 (yes) for active, 0 (no) for inactive

Take a look at these entries with their results.
Compound: CC(C(=O)O)c1ccc2c(c1)[nH]c1ccc(Cl)cc12 (centres undefined)
Label Class: 0 (no)
//
Compound: O=C(O)Cc1ccc2c(c1)C(=O)c1ccccc1CO2
Label Class: 0 (no)
//
Compound: O=C(Oc1ccccc1)Oc1ccccc1
Label Class: 1 (yes)
//
Compound: CCCCC(CC)COC(=O)CCCCC(=O)OCc1ccccc1 (centres undefined)
Label Class: 1 (yes)
//
Compound: [Cu+]
Label Class: 1 (yes)

Next item in the queue.
Could you please tell me the result logged for O=c1oc2cc(O)ccc2c2oc3cc(O)ccc3c12 in this assay?
1 (yes)

###

Measurement Description: qHTS assay to test for compound auto fluorescence at 460 nm (blue) in HepG2 cells (AID 720687); also: % is scaled to controls: 0 for no effect and ±100 for the full control effect
Run Parameters: autofluorescence 405/460 nm, 1 h; series mostly up to 91.3 µM
The source made the active and inactive calls. Calls follow the shape of the dose curve; as a rule, active = well fitted curve in the direction sought with a large enough effect in the repeat runs; inconclusive = weak or mixed curves; inactive = flat fitted curve, though single readings scatter.
Measured Parameter: fluorescence, % of fluorescent control

Compound: CNC(=O)c1ccccc1Sc1ccc2c(/C=C/c3ccccn3)n[nH]c2c1
Measured Parameter: fluorescence, % of fluorescent control
Assay Result: inactive

Compound: O=C(O)[C@H](O)[C@@H](O)[C@H](O[C@@H]1O[C@H](CO)[C@H](O)[C@H](O)[C@H]1O)[C@H](O)CO
Measured Parameter: fluorescence, % of fluorescent control
Assay Result: 0.0744% [at 18.6 µM] (inactive)

Compound: O[C@@H]([C@H](O)[C@H](O)CBr)[C@H](O)CBr
Measured Parameter: fluorescence, % of fluorescent control
Assay Result: inactive

Compound: CC(=O)CC(=O)Nc1ccc(S(=O)(=O)O)cc1
Measured Parameter: fluorescence, % of fluorescent control
Assay Result: inactive

Compound: Cc1cccc2cccnc12
Measured Parameter: fluorescence, % of fluorescent control
Assay Result: inactive

Compound: CCCCCCCCCCCCOCCOCCOCCOCCOCCOCCOCCOCCOCCO
Measured Parameter: fluorescence, % of fluorescent control
Assay Result: inactive

Compound: C=Cc1cccc(C)c1
Measured Parameter: fluorescence, % of fluorescent control
Assay Result: inactive

Compound: Cc1cccc(C(=O)O)c1O
Measured Parameter: fluorescence, % of fluorescent control
Assay Result: inactive

Compound: O=C(O)O
Measured Parameter: fluorescence, % of fluorescent control
Assay Result: -0.0691% [at 3.72 µM] (inactive)

Compound: Cc1ccc(C(=O)O)cc1
Measured Parameter: fluorescence, % of fluorescent control
Assay Result: inactive

May I ask what fluorescence, % of fluorescent control has been recorded for Cc1cc(C(C)(C)C)c(O)c(C)c1Cn1c(=O)n(Cc2c(C)cc(C(C)(C)C)c(O)c2C)c(=O)n(Cc2c(C)cc(C(C)(C)C)c(O)c2C)c1=O ?
inactive

Next entry: Nc1ccc(Oc2ccc(Cl)cc2)cc1
inactive

Next entry: Cc1cc(C(C)(C)C)cc(C)c1CC1=NCCN1
0.013% [at 18.6 µM] (inactive)

###

Study Target: Cytochrome P450 2C9 (Homo sapiens)
Measurement Description: Cytochrome P450 Family 2 Subfamily C Member 9 (CYP2C9) small molecule antagonists: luciferase reporter qHTS assay (AID 1671198); also: nearly all actives have a fitted effect of over 50% in size
Run Parameters: P450-Glo CYP2C9 enzyme assay, luciferin luminescence; series mostly up to 115 µM
Description: U.S. Tox21 Program National Center for Advancing Translational Sciences [NCATS] U.S. Environmental Protection Agency [EPA] National Institutes of Environmental Health Sciences [NIEHS] National Toxicology Program [NTP] U.S. Food and Drug Administration [FDA] […] The luciferin products formed are detected with a luciferin detection reagent, and the amount of light produced is proportional to CYP activity. […]
Records with an inconclusive call do not appear. Active and inactive are the calls of the source. Calls come from the whole dose curve; as a rule, active = well fitted inhibition curve with a large enough effect in the repeat runs; inconclusive = weak or mixed curves; inactive = no such curve, though single readings can be large or run the other way.
Please reply with one of these outcomes: Y (active), N (inactive)

Take a look at these entries with their results.
Compound: CCOC(=O)NNc1ccc(N(CC)CC(C)O)nn1 (configuration not stated)
Label Class: N
--
Compound: Nc1ccc(C(=O)O)c(O)c1
Label Class: N
--
Compound: Cl[Si](Cl)(c1ccccc1)c1ccccc1
Label Class: Y
--
Compound: CCCCCC(C)OC(=O)COc1ccc(Cl)c2cccnc12 (configuration not stated)
Label Class: Y
--
Compound: COc1c(C)c2c(c(O)c1C/C=C(\C)CCC(=O)OCCN1CCOCC1)C(=O)OC2
Label Class: Y

Could you please tell me the result logged for CCN(CC)c1ccc2c(-c3ccc(S(=O)(=O)O)cc3S(=O)(=O)[O-])c3ccc(=[N+](CC)CC)cc-3oc2c1 in this assay?
Y

Next entry: CCCCCCCCCCCC(=O)OCC(C)OC(=O)CCCCC(=O)O (configuration not stated)
Y

Next entry: Fc1ccc(C(c2ccc(F)cc2)N2CCNCC2)cc1
N

Next entry: Nc1nc(N)nc(-c2cc(Cl)ccc2Cl)n1
N

Next entry: CCN1C(=O)c2ccccc2C1Nc1ccc(OCCN2CCCCC2)cc1 (configuration not stated)
N

Next entry: [Cu+]
Y

Next entry: CC1=Nc2ccccc2C1(C)C
Y
